Reported pKd values are given for each entry in this list.
Biological target: T1, IL-2Rβ (UniProt P14784 27-240, limits assumed, biotinylated (site not stated))
T1 construct: also called CD122; IL-2Rbeta
T1 sequence (looked up): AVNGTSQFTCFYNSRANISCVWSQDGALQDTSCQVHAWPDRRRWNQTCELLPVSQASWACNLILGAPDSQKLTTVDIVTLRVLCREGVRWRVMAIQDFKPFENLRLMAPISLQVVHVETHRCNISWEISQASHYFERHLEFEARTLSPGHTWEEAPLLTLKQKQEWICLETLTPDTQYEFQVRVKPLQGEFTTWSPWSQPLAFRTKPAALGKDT
Assay: SPR Biacore T100, kinetic fit; biotinylated IL-2Rβ on chip
Please note pKd is a logarithmic value: minus log10 of concentration in mol/L. Answer with that number alone.

in silico designed IL-2 variant SEQ ID NO: 17, MSA fusion protein (ligand, not shown: large carriers; small tags and cut ends) APTSSSTKKTQLQLEHLLLDLQMILNMLNNYDNPKLTRLLTFKFYMPKKATSLKHLQCLEEELKPLEEALNLAQSKNFHLDPRDLISNINVIVLELKGSETTFMCEYADETATIIEFLNRWITFCQSIISTLT	6.62

Pending binder:
Q. Dear colleague, I am looking for the recorded pKd of the following binder: in silico designed IL-2 variant SEQ ID NO: 2, MSA fusion protein (ligand, not shown: large carriers; small tags and cut ends) APTSSSTKKTQLQLEHLLLDLQMILNMLNNYDNPKLTRLLTFKFYMPKKATELKHLQCLEEELKPLEEALNAAGDDPKTIRDLISNINVIVLELKGSETTFMCEYADETATIIEFLNRWITFCQSIISTLT
A. 6.48
